Biological target: T1, ClpS^core (E. coli ClpS residues 26-106) (E. coli, UniProt P0A8Q6 26-106)
T1 sequence (looked up): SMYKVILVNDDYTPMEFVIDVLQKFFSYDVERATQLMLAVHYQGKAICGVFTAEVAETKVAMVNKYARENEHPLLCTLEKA
Test: fluorescence polarisation
pKd: −log10 of the molar value. No end group written: not given here.
OBSERVABLE: pKd

• LLYVQRDSKEC(fluorescein maleimide) [fluorescent N-end-rule peptide LLYVQRDSKEC-fl] = ~5.52
